System: Mus musculus
Experiment: Anticonvulsant activity in intraperitoneally dosed Swiss albino mouse assessed as reduction in electrical stimulus-induced seizures after 0.5 hrs by maximal electroshock seizure test
Format: functional
quantity_name: MED50 (mg/kg)
Give just the number in mg/kg; leave the unit off.

{"compound": "NC(=O)N1c2ccccc2C=Cc2ccccc21 [CARBAMAZEPINE]", "target_or_test_system": "Mus musculus", "meas_value": 30}
{"compound": "O=C1NC(=O)C(c2ccccc2)(c2ccccc2)N1 [PHENYTOIN]", "target_or_test_system": "Mus musculus", "meas_value": 30}
{"compound": "CCOC(=O)Nc1ccc(N2CCN(Cc3ccccc3)CC2)cc1", "target_or_test_system": "Mus musculus", "meas_value": 100}
{"compound": "CCOC(=O)Nc1ccc(N2CCN(c3ncccn3)CC2)cc1", "target_or_test_system": "Mus musculus", "meas_value": 100}

So for "CCOC(=O)Nc1ccc(N2CCN(c3ccc(C(C)=O)cc3)CC2)cc1" , the logged MED50 turned out to be 30

So for "CCOC(=O)Nc1ccc(N2CCN(c3ccc(C(F)(F)F)cc3)CC2)cc1" , the logged MED50 turned out to be 100

So for "CCOC(=O)Nc1ccc(N2CCN(c3ccc(Cl)cc3)CC2)cc1" , the logged MED50 turned out to be 100

So for "CCOC(=O)Nc1ccc(N2CCN(c3ccc(OC)cc3)CC2)cc1" , the logged MED50 turned out to be 100

So for "CCOC(=O)Nc1ccc(N2CCN(c3ccccn3)CC2)cc1" , the logged MED50 turned out to be 100

So for "CCOC(=O)Nc1ccc(N2CCN(c3ccc(C)cc3)CC2)cc1" , the logged MED50 turned out to be 30

So for "CCOC(=O)Nc1ccc(N2CCN(c3ccccc3)CC2)cc1" , the logged MED50 turned out to be 30

So for "CCOC(=O)Nc1ccc(N2CCN(c3ccncc3)CC2)cc1" , the logged MED50 turned out to be 100

====

System: Mus musculus
Experiment: Anticonvulsant activity in intraperitoneally dosed Swiss albino mouse assessed as reduction in clonic seizures after 4 hrs by subcutaneous pentylenetetrazole seizure test
Format: functional
Collected MED50 values appear next to each entry.

{"compound": "CCOC(=O)Nc1ccc(N2CCN(C(=O)c3ccccc3)CC2)cc1", "quantity_name": "MED50", "meas_value": "300 mg/kg"}
{"compound": "CCC1(C)CC(=O)NC1=O (stereo not given) [ETHOSUXIMIDE]", "quantity_name": "MED50", "meas_value": "300 mg/kg"}
{"compound": "CCOC(=O)Nc1ccc(N2CCN(C(c3ccccc3)c3ccccc3)CC2)cc1", "quantity_name": "MED50", "meas_value": "300 mg/kg"}
{"compound": "NC(=O)N1c2ccccc2C=Cc2ccccc21 [CARBAMAZEPINE]", "quantity_name": "MED50", "meas_value": "300 mg/kg"}
{"compound": "CCOC(=O)Nc1ccc(N2CCN(c3ccc(Cl)cc3)CC2)cc1", "quantity_name": "MED50", "meas_value": "100 mg/kg"}

So for "CCOC(=O)Nc1ccc(N2CCN(c3ccc(C(C)=O)cc3)CC2)cc1" , the logged MED50 turned out to be 100 mg/kg

So for "CCOC(=O)Nc1ccc(N2CCN(c3ccccc3)CC2)cc1" , the logged MED50 turned out to be 300 mg/kg

====

Collected MED50 values appear next to each entry.
System: Mus musculus
Assay: Anticonvulsant activity in intraperitoneally dosed Swiss albino mouse assessed as reduction in electrical stimulus-induced seizures after 4 hrs by maximal electroshock seizure test
Format: functional
Give just the number in mg/kg; leave the unit off.

Completed entries (count: 3):
{"sample_smiles": "CCOC(=O)Nc1ccc(N2CCN(c3ccccc3)CC2)cc1", "meas_value": 300}
{"sample_smiles": "CCOC(=O)Nc1ccc(N2CCN(c3ccc(C)cc3)CC2)cc1", "meas_value": 100}
{"sample_smiles": "CCOC(=O)Nc1ccc(N2CCN(C(c3ccccc3)c3ccccc3)CC2)cc1", "meas_value": 300}

So for "CCOC(=O)Nc1ccc(N2CCN(c3ccc(C(C)=O)cc3)CC2)cc1" , the logged MED50 turned out to be 100

====

Tested on: Mus musculus
Assay: Anticonvulsant activity in intraperitoneally dosed Swiss albino mouse assessed as reduction in clonic seizures after 0.5 hrs by subcutaneous pentylenetetrazole seizure test
Format: functional
quantity_name: MED50 (mg/kg)
Give just the number in mg/kg; leave the unit off.

Completed entries (count: 3):
{"molecule": "CCOC(=O)Nc1ccc(N2CCN(c3ccc(C(C)=O)cc3)CC2)cc1", "target_or_test_system": "Mus musculus", "MED50, mg/kg": 100}
{"molecule": "CCC1(C)CC(=O)NC1=O (stereo not drawn) [ETHOSUXIMIDE]", "target_or_test_system": "Mus musculus", "MED50, mg/kg": 100}
{"molecule": "CCOC(=O)Nc1ccc(N2CCN(c3ccc(C)cc3)CC2)cc1", "target_or_test_system": "Mus musculus", "MED50, mg/kg": 100}

So for "CCOC(=O)Nc1ccc(N2CCN(Cc3ccc4c(c3)OCO4)CC2)cc1" , the logged MED50 turned out to be 300

So for "CCOC(=O)Nc1ccc(N2CCN(c3ccccc3)CC2)cc1" , the logged MED50 turned out to be 300

So for "CCOC(=O)Nc1ccc(N2CCN(c3ccc(C(F)(F)F)cc3)CC2)cc1" , the logged MED50 turned out to be 300

So for "CCOC(=O)Nc1ccc(N2CCN(c3ccc(Cl)cc3)CC2)cc1" , the logged MED50 turned out to be 100

So for NC(=O)N1c2ccccc2C=Cc2ccccc21 [CARBAMAZEPINE] , the logged MED50 turned out to be 100

====

Assay: Neurological toxicity in intraperitoneally dosed Swiss albino mouse assessed as motor impairment after 0.5 hrs by rotarod test
Format: organism-based
Settings: in vivo, ip, read-out: MTD50
quantity_name: TD50 at 0.5 h

{"compound": "NC(=O)N1c2ccccc2C=Cc2ccccc21 [CARBAMAZEPINE]", "TD50 at 0.5 h": "100 mg/kg"}
{"compound": "CCOC(=O)Nc1ccc(N2CCN(c3ccccn3)CC2)cc1", "TD50 at 0.5 h": "100 mg/kg"}
{"compound": "CCOC(=O)Nc1ccc(N2CCN(C(=O)c3ccccc3)CC2)cc1", "TD50 at 0.5 h": "300 mg/kg"}
{"compound": "CCOC(=O)Nc1ccc(N2CCN(c3ccc(C)cc3)CC2)cc1", "TD50 at 0.5 h": "100 mg/kg"}

Now let's try a different one.
So for "CCOC(=O)Nc1ccc(N2CCN(c3ccncc3)CC2)cc1" , the logged TD50 at 0.5 h turned out to be 300 mg/kg

====

Test: Neurological toxicity in intraperitoneally dosed Swiss albino mouse assessed as motor impairment after 4 hrs by rotarod test
Type: organism-based
Settings: in vivo, ip, read-out: MTD50
quantity_name: TD50 at 4 h (mg/kg)
Give just the number in mg/kg; leave the unit off.

Completed entries (count: 3):
{"molecule": "CCOC(=O)Nc1ccc(N2CCN(c3ccncc3)CC2)cc1", "meas_value": 100}
{"molecule": "NC(=O)N1c2ccccc2C=Cc2ccccc21 [CARBAMAZEPINE]", "meas_value": 300}
{"molecule": "CCOC(=O)Nc1ccc(N2CCN(c3ccc(C)cc3)CC2)cc1", "meas_value": 100}

So for "CCOC(=O)Nc1ccc(N2CCN(C(=O)c3ccccc3)CC2)cc1" , the logged TD50 at 4 h turned out to be 300

So for "CCOC(=O)Nc1ccc(N2CCN(c3ccccn3)CC2)cc1" , the logged TD50 at 4 h turned out to be 100

====

Tested on: Mus musculus
Assay: Anticonvulsant activity in intraperitoneally dosed Swiss albino mouse assessed as reduction in electrical stimulus-induced seizures after 4 hrs by maximal electroshock seizure test
Format: functional
quantity_name: MED50

Completed entries (count: 3):
{"compound": "CCOC(=O)Nc1ccc(N2CCN(C(=O)c3ccco3)CC2)cc1", "MED50": "100 mg/kg"}
{"compound": "CCOC(=O)Nc1ccc(N2CCN(c3ccccn3)CC2)cc1", "MED50": "100 mg/kg"}
{"compound": "CCOC(=O)Nc1ccc(N2CCN(Cc3ccccc3)CC2)cc1", "MED50": "100 mg/kg"}

Form field MED50 for item "CCOC(=O)Nc1ccc(N2CCN(c3ccc(F)cc3)CC2)cc1" on Mus musculus: 300 mg/kg

Form field MED50 for item "CCOC(=O)Nc1ccc(N2CCN(C(=O)c3ccccc3)CC2)cc1" on Mus musculus: 100 mg/kg

====

System: Mus musculus
Test: Anticonvulsant activity in Swiss albino mouse assessed as reduction in electrical stimulus-induced seizures at 300 mg/kg, ip after 4 hrs by maximal electroshock seizure test
Assay type: functional, organism-based
Design: dose 300 mg/kg
The source made the active and inactive calls. The rule behind the calls is not given here.
quantity_name: Activity

Completed entries (count: 7):
{"molecule": "CCOC(=O)Nc1ccc(N2CCN(c3ccc(OC)cc3)CC2)cc1", "Activity": "inactive"}
{"molecule": "CCOC(=O)Nc1ccc(N2CCN(c3ccc(C(F)(F)F)cc3)CC2)cc1", "Activity": "inactive"}
{"molecule": "CCOC(=O)Nc1ccc(N2CCN(CC)CC2)cc1", "Activity": "inactive"}
{"molecule": "CCOC(=O)Nc1ccc(N2CCN(c3ccc(F)cc3)CC2)cc1", "Activity": "inactive"}
{"molecule": "CCOC(=O)Nc1ccc(N2CCN(C)CC2)cc1", "Activity": "inactive"}
{"molecule": "CCC1(C)CC(=O)NC1=O (stereo not drawn) [ETHOSUXIMIDE]", "Activity": "inactive"}
{"molecule": "CCOC(=O)Nc1ccc(N2CCN(Cc3ccc4c(c3)OCO4)CC2)cc1", "Activity": "inactive"}

So for "CCCC(CCC)C(=O)O" , the logged Activity turned out to be inactive
